# tgt: T1, monkey Trop2 on CHO-K1 cells (monkey, UniProt A0A2K5UE71 27-323)
# T1 construct: also called CHO-K1/monkey Trop2
# T1 sequence: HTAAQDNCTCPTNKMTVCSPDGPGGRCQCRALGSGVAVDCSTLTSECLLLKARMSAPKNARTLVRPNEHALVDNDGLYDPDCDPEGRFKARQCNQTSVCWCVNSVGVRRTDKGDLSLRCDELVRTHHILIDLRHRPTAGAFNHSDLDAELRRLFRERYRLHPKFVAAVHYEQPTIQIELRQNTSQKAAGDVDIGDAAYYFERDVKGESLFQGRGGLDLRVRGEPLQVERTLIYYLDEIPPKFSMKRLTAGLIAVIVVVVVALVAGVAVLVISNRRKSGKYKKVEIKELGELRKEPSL
# test details: flow cytometry on CHO-K1/monkey Trop2 cells

| binder | Maximum MFI value, MFI |
| --- | --- |
| PR001128 (antibody, human IgG1, kappa, V domains shown, fully human IgG1/kappa; also called antibody No. (1)) VH: QVQLQESGPGLVKPSGTLSLTCAVSGGSISSSNWWSWVRQPPGKGLEWIGEIFHSGTTYYNPSLKSRVTILVDKSKNQFSLKLSSVTAADTAVYYCARDNTKSWDHFDHWGQGTLVTVSS VL: EIVLTQSPATLSLSPGERATLSCRASQSVGSYLAWYQQKPGQAPSLLIYDASNRATGIPARFSGSGSGTDFTLTISSLEPEDFAVYYCQQRTNWYTFGQGTKLEIKR | 53200 |
| PR001130 (antibody, human IgG1, kappa, V domains shown, fully human IgG1/kappa; also called antibody No. (2)) VH: QVQLQESGPGLVKPSGTLSLTCAVSGDSISSHNWWSWVRQPPGKGLEWIGEIYHSGITSYNPSLKSRVTISVDKSKNQFSLKLNSVTAADTAMYYCARGSGVISYFDYWGQGTLVTVSS VL: DIQMTQSPSTLSASVGDRVTITCRASQSIGNWLAWYQQKPGKAPKLLIYKASSLESGVPSRFSGSGSGTEFTLTISSLQPDDFATYYCQQYDSYSPITFGQGTRLEIKR | 61700 |
| comparative example 2 antibody Tab (hRS7) (antibody, human IgG1, kappa, V domains shown, prepared on the basis of sacituzumab govitecan (ChemPartner, #T07-001); naked antibody) VH: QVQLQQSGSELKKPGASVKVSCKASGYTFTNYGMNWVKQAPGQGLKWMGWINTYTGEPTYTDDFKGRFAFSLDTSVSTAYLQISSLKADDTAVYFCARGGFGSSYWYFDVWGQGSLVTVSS VL: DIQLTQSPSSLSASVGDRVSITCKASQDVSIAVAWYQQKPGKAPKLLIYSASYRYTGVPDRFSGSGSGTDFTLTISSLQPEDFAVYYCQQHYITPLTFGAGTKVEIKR | 53100 |

Reference source for all entries: patent US20240067748A1
